Where do these numbers come from? They come from patent US20130065922A1.

Give measured melting point for each item. Keep answers brief.

Reference set, count: 2
>  <Compound>
CO/N=C/C(C)(C)NC(=O)C(OC)Oc1ccc2ncc(OC)cc2c1 (stereo not drawn)

>  <Measured>
100 to 106 °C

$$$$
>  <Compound>
CO/N=C/C(C)(C)NC(=O)C(Oc1cc(Cl)c2ncc(OC)cc2c1)SC (stereo not drawn)

>  <Measured>
124 to 125 °C

$$$$

Report melting point for every entry below.
1. CO/N=C/C(C)(C)NC(=O)C(Oc1ccc2ncc(SC)cc2c1)SC (stereo not drawn)
2. CCC(Oc1ccc2ncc(SC)cc2c1)C(=O)NC(C)(C)C (stereo not drawn)

**A:**
1: 120 to 122 °C; 2: 113 to 115 °C

Report melting point for every entry below.
1. C#CC(C)(C=C)NC(=O)C(Oc1ccc2ncc(SC)cc2c1)SC (stereo not drawn)
2. CO/N=C/C(C)(C)NC(=O)C(Oc1ccc2ncc(OC)cc2c1)SC (stereo not drawn)
3. CO/N=C/C(C)(C)NC(=O)C(Oc1cc(C)c2ncc(OC)cc2c1)SC (stereo not drawn)
4. CCOc1cnc2ccc(OC(SC)C(=O)NC(C)(C)C)cc2c1 (stereo not drawn)
5. COCC#CC(C)(C)NC(=O)C(OC)Oc1cc(Cl)c2ncc(SC)cc2c1 (stereo not drawn)
6. COC(Oc1cc(C)c2ncc(SC)cc2c1)C(=O)NC1CCC1 (stereo not drawn)
7. C#CC(C)(C)NC(=O)C(OC)Oc1ccc2ncc(SC)cc2c1 (stereo not drawn)

**A:**
["121 to 123 °C", "122 to 124 °C", "121 to 124 °C", "120 to 123 °C", "85 to 87 °C", "132 to 134 °C", "123 to 125 °C"]

###

Give measured melting point for each item. Keep answers brief.

Report melting point for every entry below.
1. COC(Oc1ccc2ncc(SC)cc2c1)C(=O)NC1CCC1 (stereo not shown) [Compound 61]
2. C#CC(C)(C)NC(=O)C(OC)Oc1ccc2ncc(OC)cc2c1 (stereo not shown) [Compound 9]
3. C#CC(C)(C)NC(=O)C(CC)Oc1cc(C)c2ncc(SC)cc2c1 (stereo not shown) [Compound 37]
4. C#CC(C)(C#C)NC(=O)C(Oc1cc(C)c2ncc(OCC)cc2c1)SC (stereo not shown) [Compound 23]

**A:**
1: 80 to 82 °C; 2: 124 to 127 °C; 3: 134 to 136 °C; 4: 143 to 145 °C

###

Give measured inhibition at 200 ppm for each item. Keep answers brief.
- Tested on: Pythium ultimum
- Experiment description: Pythium ultimum/Liquid Culture (Seedling Damping Off)
- Assay type: cell-based
- Particulars: Globisporangium ultimum; 200 ppm; liquid culture (PDB), 24° C., growth inhibition photometrically 2-3 days after application; read-out: inhibit fungal infestation

Reference set, count: 8
>  <Molecule>
CCC(Oc1ccc2ncc(OC)cc2c1)C(=O)NC(C)(C)C (stereo not drawn) [Compound 12]

>  <inhibition at 200 ppm>
≥ 80%

$$$$
>  <Molecule>
COCC(C)(C#N)NC(=O)C(Oc1ccc2ncc(OC)cc2c1)SC (stereo not drawn) [Compound 3]

>  <inhibition at 200 ppm>
≥ 80%

$$$$
>  <Molecule>
CCOc1cnc2ccc(OC(SC)C(=O)NC(C)(C)C)cc2c1 (stereo not drawn) [Compound 26]

>  <inhibition at 200 ppm>
≥ 80%

$$$$
>  <Molecule>
COc1cnc2c(C)cc(OC(SC)C(=O)NC(C)(C)C)cc2c1 (stereo not drawn) [Compound 16]

>  <inhibition at 200 ppm>
≥ 80%

$$$$
>  <Molecule>
CCC(Oc1ccc2ncc(OC)cc2c1)C(=O)NC(C)(C)/C=N/OC (stereo not drawn) [Compound 6]

>  <inhibition at 200 ppm>
≥ 80%

$$$$
>  <Molecule>
CCOc1cnc2c(C)cc(OC(SC)C(=O)NC(C)(C)/C=N/OC)cc2c1 (stereo not drawn) [Compound 21]

>  <inhibition at 200 ppm>
≥ 80%

$$$$
>  <Molecule>
CO/N=C/C(C)(C)NC(=O)C(Oc1cc(C)c2ncc(OC)cc2c1)SC (stereo not drawn) [Compound 19]

>  <inhibition at 200 ppm>
≥ 80%

$$$$
>  <Molecule>
CSc1cnc2ccc(OC(SC)C(=O)NC(C)(C#N)C3CC3)cc2c1 (stereo not drawn) [Compound 65]

>  <inhibition at 200 ppm>
≥ 80%

$$$$

# input for lookup
Please fill in: inhibition at 200 ppm reported for C#CC(C)(C=C)NC(=O)C(Oc1ccc2ncc(SC)cc2c1)SC (stereo not drawn) [Compound 63] = ≥ 80%
